Tested on: NIH-3T3
Assay: MTT cell viability assay, NIH-3T3 healthy cell line
Assay type: cell-based
Details: Mus musculus, NIH3T3, 24 hours incubation
Could you please report measured IC50 for the items listed next?
One number for each entry, in µM.

S=C(Nc1ccc(Cl)cc1)N1CCN(c2nnc(-c3ccc(Cl)cc3)c(-c3ccc(Cl)cc3)n2)CC1 [Compound 1i]    81.5
S=C(Nc1ccccc1)N1CCN(c2nnc(-c3ccccc3)c(-c3ccccc3)n2)CC1 [Compound 1b]    42.6
S=C(Nc1ccc(Cl)cc1)N1CCN(c2nnc(-c3ccccc3)c(-c3ccccc3)n2)CC1 [Compound 1f]    65.3
S=C(Nc1ccccc1)N1CCN(c2nnc(-c3ccc(Cl)cc3)c(-c3ccc(Cl)cc3)n2)CC1 [Compound 1h]    40.2
COc1ccc(-c2nnc(N3CCN(C(=S)Nc4ccccc4)CC3)nc2-c2ccc(OC)cc2)cc1 [Compound 1g]    76

NIH-3T3 data for CCNC(=S)N1CCN(c2nnc(-c3ccccc3)c(-c3ccccc3)n2)CC1 [Compound 1a] ; its IC50: 33.2

###

Consider the following compounds; for each one, report its inhibition at 50 µM.
System: C6 glioma
Test: MTT cell viability assay, C6
Type: cell-based
Conditions: C6 glioma, 24 hours incubation
Give bare numbers, in %.

These recorded examples may help you get a feel for the data.
CCNC(=S)N1CCN(c2nnc(-c3ccccc3)c(-c3ccccc3)n2)CC1 [Compound 1a]    37.1
S=C(Nc1ccc(Cl)cc1)N1CCN(c2nnc(-c3ccccc3)c(-c3ccccc3)n2)CC1 [Compound 1f]    66.6
Cc1ccc(NC(=S)N2CCN(c3nnc(-c4ccccc4)c(-c4ccccc4)n3)CC2)cc1 [Compound 1c]    46.8

Looking up COc1ccc(NC(=S)N2CCN(c3nnc(-c4ccccc4)c(-c4ccccc4)n3)CC2)cc1 [Compound 1d] , I see its inhibition at 50 µM listed as 93.3
